# maps each entry to its pIC50
Biological target: TEM-1 (Class A beta-lactamase) (Escherichia coli)
Sequence (P62593 whole entry, looked up, species assumed): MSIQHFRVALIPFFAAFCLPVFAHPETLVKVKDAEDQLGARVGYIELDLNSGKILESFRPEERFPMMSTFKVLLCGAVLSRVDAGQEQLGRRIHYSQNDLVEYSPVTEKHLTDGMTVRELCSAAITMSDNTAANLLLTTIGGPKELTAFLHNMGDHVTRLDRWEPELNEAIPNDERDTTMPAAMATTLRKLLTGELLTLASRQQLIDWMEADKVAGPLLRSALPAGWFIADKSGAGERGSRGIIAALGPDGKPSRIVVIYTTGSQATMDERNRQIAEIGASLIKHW
Experiment: Inhibition of beta-lactamase enzymes (nitrocefin hydrolysis), TEM-1
Conditions: read-out: Class A TEM-1 60 min IC50, nitrocefin 100 μM
Counter-ions that a name gives are not always drawn.
# reply with the number alone; pIC50 is -log10 of concentration in mol/L

>>> numeric_value("CC1=C[C@@H](C(N)=O)N2C[C@@H]1N(OC(F)(F)C(=O)O)C2=O [Example 91, lithium salt]")
9.33

input: Identify measured pIC50 associated with CC(=O)NC[C@@H]1C(C)=C[C@@H]2CN1C(=O)N2O[C@@H](F)C(=O)O [Example 78, lithium salt]
output: 5.44

input: Identify measured pIC50 associated with CC1=C[C@@H]2CN(C(=O)N2OC(F)C(=O)O)[C@@H]1C(N)=O (mixture of isomers) [Example 5, lithium salt]
output: 8.36

input: Identify measured pIC50 associated with CC1=C[C@@H](C#N)N2C[C@@H]1N(O[C@H](F)C(=O)O)C2=O [Example 95, lithium salt]
output: 7.46

input: Identify measured pIC50 associated with CC1=C[C@@H]2CN(C(=O)N2O[C@@H](F)C(=O)O)[C@@H]1C(=O)NCc1ncco1 [Example 68, lithium salt]
output: 6.51

input: Identify measured pIC50 associated with NC(=O)[C@@H]1C(C2CC2)=C[C@@H]2CN1C(=O)N2O[C@H](F)C(=O)O [Example 41, lithium salt]
output: 8.46

input: Identify measured pIC50 associated with CC1=C[C@@H]2CN(C(=O)N2OC(F)C(=O)O)[C@@H]1C(=O)NCc1cnccn1 (some centres unmarked) [Example 30, lithium salt]
output: 7.09

input: Identify measured pIC50 associated with CC1=C[C@@H]2CN(C(=O)N2O[C@@H](F)C(=O)O)[C@@H]1C(=O)NOCCS(N)(=O)=O [Example 56, lithium salt]
output: 7.03

input: Identify measured pIC50 associated with CC1=C[C@@H]2CN(C(=O)N2O[C@@H](F)C(=O)O)[C@@H]1CNC(=O)C(F)(F)F [Example 79, lithium salt]
output: 5.38

input: Identify measured pIC50 associated with CC1=C[C@@H]2CN(C(=O)N2O[C@@H](F)C(=O)O)[C@@H]1C(=O)NCCC(N)=O [Example 71, lithium salt]
output: 6.96

input: Identify measured pIC50 associated with CC1=C[C@@H]2CN(C(=O)N2O[C@@H](F)C(=O)O)[C@@H]1C(=O)NCO [Example 87, lithium salt]
output: 6.82

input: Identify measured pIC50 associated with CC1=C[C@@H]2CN(C(=O)N2OC(C)(F)C(=O)O)[C@@H]1C(N)=O (mixture of isomers) [Example 11, lithium salt]
output: 6.64

input: Identify measured pIC50 associated with CC1=C[C@@H]2CN(C(=O)N2O[C@@H](F)C(=O)O)[C@@H]1C(=O)NCCNS(N)(=O)=O [Example 75, lithium salt]
output: 7.08

input: Identify measured pIC50 associated with CC1=C[C@@H]2CN(C(=O)N2O[C@@H](F)C(=O)O)[C@@H]1C(=O)NOCC1CC1 [Example 70, lithium salt]
output: 7.59

====

Tested on: Klebsiella pneumoniae SHV-18, OXA-2, OKP-6 (ATCC 700603)
Assay: MIC, CLSI broth microdilution, beta-lactam with or without BLI
Assay type: cell-based
Details: BLI at fixed 4 μg/ml; K. pneumoniae ATCC 700603
Structures can show the parent of a compound that is named as a salt.
# maps each entry to its MIC of faropenem in presence of BLI
Answer in µg/mL, number only, no unit symbol.

Some compounds with recorded MIC of faropenem in presence of BLI:
>>> numeric_value("CC1=C[C@@H](C(N)=O)N2C[C@@H]1N(O[C@@H](F)C(=O)O)C2=O [Example 34, lithium salt]")
0.5
>>> numeric_value("CC1=C[C@@H]2CN(C(=O)N2O[C@H](F)C(=O)O)[C@@H]1C(N)=O [Example 4, lithium salt]")
1

input: Identify measured MIC of faropenem in presence of BLI associated with CC1=C[C@@H](C(N)=O)N2C[C@@H]1N(O[C@H](F)C(=O)O)C2=O [Example 33, lithium salt]
output: 0.5

input: Identify measured MIC of faropenem in presence of BLI associated with CC1=C[C@@H](C(N)=O)N2C[C@@H]1N(OCC(=O)O)C2=O [Example 93, lithium salt]
output: 1

input: Identify measured MIC of faropenem in presence of BLI associated with CC1=C[C@@H]2CN(C(=O)N2O[C@@H](F)C(=O)O)[C@@H]1C(N)=O [Example 3, lithium salt]
output: 2
